measurement_protocol: Solubility of riboflavin as a function of pH and % FMN
Assay type: physicochemical
particulars: no FMN present; read-out: intrinsic (equilibrium) solubility of riboflavin
property_name: solubility

stdin: Param item = "Cc1cc2nc3c(=O)[nH]c(=O)nc-3n(C[C@H](O)[C@H](O)[C@H](O)CO)c2cc1C" ; retrieve measured solubility.
stdout: ~70 µg/mL

---

measurement_protocol: Solubility of riboflavin as a function of pH and % FMN
Format: physicochemical
particulars: 5% FMN solution, aqueous with cosolvent or surfactant or cyclodextrin; 5% FMN, pH 7-8; read-out: riboflavin solubility (amount that can dissolve)
Excerpt: The intrinsic solubility of riboflavin is approximately 70 mcg/ml (see plot below with no FMN present). Precipitation is expected to occur if riboflavin reaches a level above this (due to riboflavin in drug substance or due to degradation to riboflavin with time), and precipitation would be unacceptable for patient safety with intravenous use. Solubility of Riboflavin as a function of pH and % FMN [formula] At 1% FMN, up to 365 mcg/ml of riboflavin can dissolve.
property_name: solubility

stdin: Param item = "Cc1cc2nc3c(=O)[nH]c(=O)nc-3n(C[C@H](O)[C@H](O)[C@H](O)CO)c2cc1C" ; retrieve measured solubility.
stdout: ≤ 1320 µg/mL

---

measurement_protocol: Solubility of riboflavin as a function of pH and % FMN
Assay type: physicochemical
particulars: 1% FMN solution, aqueous with cosolvent or surfactant or cyclodextrin; read-out: riboflavin solubility (amount that can dissolve)
property_name: solubility

stdin: Param item = "Cc1cc2nc3c(=O)[nH]c(=O)nc-3n(C[C@H](O)[C@H](O)[C@H](O)CO)c2cc1C" ; retrieve measured solubility.
stdout: ≤ 0.365 mg/mL
